Data origin, for the record: patent US12144869B2

Recorded measurements of TM2 (° C.), one per entry
- experimental protocol: Differential scanning fluorimetry (protein thermal shift; TM1/TM2)
- Assay type: physicochemical
- experimental context: Table 11; melting temperature of the Fab domain

{"molecule": "SRP2196-C01 (antibody, V domains shown) VH: EVQLVESGGGLVQPGGSLRLSCAASGFNIIGYYIHWVRQAPGKGLEWVGSITPLSGATSKADSVKGRFTISADTSKNTAYLQMNSLRAEDTAVYYCARDSRRYIRSWDYWGQGTLVTVSS VL: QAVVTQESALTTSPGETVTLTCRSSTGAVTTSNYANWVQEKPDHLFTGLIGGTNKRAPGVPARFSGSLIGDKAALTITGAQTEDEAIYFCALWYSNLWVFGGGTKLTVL", "TM2 (° C.) [°C]": 70}
{"molecule": "SRP2196-A07 (antibody, V domains shown) VH: EVQLVESGGGLVQPGGSLRLSCAASGFNITGYYIHWVRQAPGKGLEWVGQISPNSGSTYYADSVKGRFTISADTSKNTAYLQMSSLRAEDTAVYYCARDSRRYVRGWDYWGQGTLVTVSS VL: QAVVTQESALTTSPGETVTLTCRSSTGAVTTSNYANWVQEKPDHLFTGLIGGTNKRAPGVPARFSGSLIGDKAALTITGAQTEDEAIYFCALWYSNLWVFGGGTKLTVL", "TM2 (° C.) [°C]": 74}
{"molecule": "SRP2196-A01 (antibody, V domains shown) VH: EVQLVESGGGLVQPGGSLRLSCAASGFNITGYYIHWVRQAPGKGLEWVGQISPNSGYTYYADSVKGRFTISADTSKNTAYLQMNSLRAEDTAVYYCARDSRRYVRGWDYWGQGTLVTVSS VL: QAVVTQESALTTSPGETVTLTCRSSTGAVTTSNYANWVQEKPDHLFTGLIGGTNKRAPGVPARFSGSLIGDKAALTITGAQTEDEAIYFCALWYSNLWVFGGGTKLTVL", "TM2 (° C.) [°C]": 74}
